B1: RIPK4 (parent)
chain: VSVNAQTLDGRTPLHLAAQRGHYR

- Variants of: B1
- assay: protein stability index of a GFP-peptide fusion (GPS, HEK-293T) (PSI 1-6); higher = more stable;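 also: lentivirally expressed fusions sorted by FACS into six bins by GFP to DsRed ratio, PSI derived from sequencing read proportions per bin multiplied by bin number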
- protocol-conditions: c terminus: a fixed tail appended
Where protein stability index equals or exceeds 3, the correct label is label 1; where it does not, the label is label 0.

Record excerpt, results attached:
A18K = label 0
G21D = label 0
A5F = label 0
P13L = label 0
H15T = label 1
S2E = label 1
R24C = label 0
R20L = label 0
D9K = label 0
G21A = label 0

Prompt: Could you tell me if the measured protein stability index of G21F reaches 3 or more?
Response: label 0

Prompt: Could you tell me if the measured protein stability index of V3K reaches 3 or more?
Response: label 1

The values you see were collected from the supplement of paper PMC10567573.
